Sequence of the target: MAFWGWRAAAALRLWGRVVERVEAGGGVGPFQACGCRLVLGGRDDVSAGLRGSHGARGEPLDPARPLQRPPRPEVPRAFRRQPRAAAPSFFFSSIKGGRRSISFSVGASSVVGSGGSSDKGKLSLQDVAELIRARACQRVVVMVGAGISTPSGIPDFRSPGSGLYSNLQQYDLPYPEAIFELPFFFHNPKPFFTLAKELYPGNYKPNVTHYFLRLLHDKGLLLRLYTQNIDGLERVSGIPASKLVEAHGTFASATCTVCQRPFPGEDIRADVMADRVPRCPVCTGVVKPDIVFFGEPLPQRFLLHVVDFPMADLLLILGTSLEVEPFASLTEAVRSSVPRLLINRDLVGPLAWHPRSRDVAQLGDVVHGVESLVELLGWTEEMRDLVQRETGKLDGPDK
Endpoint Label: IC50

So for CCCCCCCCCCCCSC[C@@H](N)C(=O)NCCCC[C@@H]1NC(=O)[C@H](CCC(N)=O)NC1=O , the logged IC50 turned out to be > 100 µM

* * *

Biological target: SIRT2 (Homo sapiens, UniProt Q8IXJ6)
Sequence (Q8IXJ6 whole entry): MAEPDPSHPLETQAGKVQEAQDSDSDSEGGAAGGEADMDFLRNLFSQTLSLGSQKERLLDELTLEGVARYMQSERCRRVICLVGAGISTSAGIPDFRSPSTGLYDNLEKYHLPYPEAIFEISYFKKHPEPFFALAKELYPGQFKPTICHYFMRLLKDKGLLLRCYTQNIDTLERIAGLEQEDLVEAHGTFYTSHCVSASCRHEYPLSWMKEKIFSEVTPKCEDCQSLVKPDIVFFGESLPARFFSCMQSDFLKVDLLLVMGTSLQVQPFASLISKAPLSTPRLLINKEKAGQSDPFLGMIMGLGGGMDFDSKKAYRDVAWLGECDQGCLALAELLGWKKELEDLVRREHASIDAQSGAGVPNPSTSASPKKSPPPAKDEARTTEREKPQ
Test: SIRT2 inhibition assays (continuous / discontinuous demyristoylation)
Assay type: biochemical
Protocol: Inhibition of the enzymatic activity of HDACs was performed continuously for HDAC8, HDAC11, and SIRT2 and discontinuously for SIRT2, 3, and 6 using adequate substrates as described previously. , Experimental details are given in the Supporting Information. A. HDAC and SIRT deacylase activity assays […] The fluorescence increase was followed for 1 h with two reads per min using a PerkinElmer Envision 2104 multilabel plate reader. […] The measured values were normalized accordingly. […]
pIC50: −log10 of the molar value.
Endpoint Label: pIC50

So for CCCCCCCCCCCCSC[C@@H](N)C(=O)NCCCC[C@@H]1NC(=O)[C@H](CCC(N)=O)NC1=O [Compound 31] , the logged pIC50 turned out to be < 4.70
